Would you kindly list efficacy in % for each of these compounds?
# System: greenhouse red spider mite (Tetranychus urticae)
# measurement.description: Tetranychus urticae spray test, OP-resistant (TETRUR), bean leaf disks
# Format: in vivo
# test.parameters: bean leaf disks; application rate 100 g/ha; after 6 days
Answers are plain numbers, in %.

Please review the following examples before continuing.
[[record]]
compound = "CCCn1c(=O)n(C)n(-c2cc(SCC(F)(F)F)c(C)cc2F)c1=O"
readout_unit = "%"
assay_value = 100

[[record]]
compound = "Cc1cc(F)c(-n2c(=O)n(CC3CC3)c(=O)n2C)cc1[S+]([O-])CC(F)(F)F (stereo not drawn)"
readout_unit = "%"
assay_value = 90


We next turn to a different compound, shown below.
Task: Item CCn1c(=O)n(C)n(-c2cc([S+]([O-])CC(F)(F)F)c(C)cc2F)c1=O (stereo not drawn) has what recorded efficacy in %?
Result: 90
